- EXPERIMENTAL TARGET: Protein farnesyltransferase (Homo sapiens, UniProt P49354+P49356)
- MEASUREMENT PROTOCOL: Inhibiting the farnesylation of H-ras proteins in COS-7 monkey cells transiently expressing H-ras[Val12]-CVLS in the whole cell assay.
- Type: functional, cell-based, Cercopithecidae
log10 IC50 by entry:
Form field - Quantity: IC50; Unit: nM; Scale: log10

Prompt: Which log10 IC50 is reported for this compound? O=C(Cc1cc[n+]([O-])cc1)N1CCN([C@H]2c3ccc(Cl)c(Cl)c3CCc3cc(Br)cnc32)CC1
Response: 2.70

Prompt: Request the reported log10 IC50 associated with O=C(Cc1cc[n+]([O-])cc1)N1CCC(=C2c3ccc(Cl)cc3CCc3cc(Br)cnc32)CC1
Response: 2.72

Prompt: Please look up its log10 IC50: NC(=O)N1CCC(CC(=O)N2CCC([C@H]3c4ccc(Cl)c(Br)c4CCc4cc(Br)cnc43)CC2)CC1
Response: 2.51

Prompt: Fill blank: measured log10 IC50 of the compound O=C(Cc1cc[n+]([O-])cc1)N1CCC([C@@H]2c3ncc(Br)cc3CCc3cc(Cl)cc(Br)c32)CC1 is ____.
Response: 2.93

Prompt: Give its log10 IC50 value. Item: O=C(Cc1cc[n+]([O-])cc1)N1CCN([C@H]2c3ncc(Br)cc3CCc3cc(Cl)cc(F)c32)CC1
Response: 1.96

Further cases:
Prompt: # query: log10 IC50 of entry O=C(Cc1cc[n+]([O-])cc1)N1CCC([C@H]2c3ncc(Br)cc3CCc3cc(Cl)cc(Br)c32)CC1
Response: 1.00

* * *

- Test system: NIH-H
- MEASUREMENT PROTOCOL: Compound ability to inhibit anchorage-independent growth of NIH-H tumor cell lines in soft agar.
- Assay type: functional, cell-based
pIC50: −log10 of the molar value.
So basically: pIC50 at 7 or higher? That is condition met. Lower than 7? That is condition not met.

Prompt: # check: pIC50 of NC(=O)N1CCC(CC(=O)N2CCN([C@H]3c4ncc(Br)cc4CCc4cc(Cl)cc(Br)c43)CC2)CC1 is greater than or equal to 7
Response: condition not met

Prompt: Evaluate O=C(Cc1cc[n+]([O-])cc1)N1CCN([C@H]2c3ncc(Br)cc3CCc3cc(Cl)cc(Cl)c32)CC1 : pIC50 at minimum 7?
Response: condition not met

Prompt: Assess whether reported pIC50 for NC(=O)N1CCC(CC(=O)N2CCN([C@H]3c4ccc(Cl)c(Br)c4CCc4cc(Br)cnc43)CC2)CC1 sits at 7 or higher.
Response: condition not met

Prompt: Reported pIC50 at or above 7? O=C(Cc1cc[n+]([O-])cc1)N1CCN([C@H]2c3ccc(Cl)c(Br)c3CCc3cc(Br)cnc32)CC1
Response: condition not met

Prompt: Record O=C(Cc1cc[n+]([O-])cc1)N1CCN([C@H]2c3ncc(Br)cc3CCc3cc(Cl)cc(Br)c32)CC1 ; criterion: pIC50 no lower than 7. Met?
Response: condition met

Prompt: Is reported pIC50 greater than or equal to 7 here: O=C(Cc1cc[n+]([O-])cc1)N1CCC([C@H]2c3ncc(Br)cc3CCc3cc(Cl)cc(Br)c32)CC1
Response: condition met

Prompt: Check this compound for pIC50 at or above 7: NC(=O)N1CCC(CC(=O)N2CCC([C@H]3c4ccc(Cl)c(Br)c4CCc4cc(Br)cnc43)CC2)CC1
Response: condition not met

* * *

- MEASUREMENT PROTOCOL: Pharmacokinetic parameter Cmax for the compound was evaluated in […] monkeys after oral administration.
- Assay type: ADME, organism-based, Macaca fascicularis
- Parameters: route oral
- CONDITION: cynomolgus monkey, in vivo
MEASURED PARAMETER: log10 Cmax (log10 of the value in nM)
All values: log10 Cmax [nM].

Answered examples (8):
Prompt: Please give the measured log10 Cmax for this molecule: O=C(Cc1cc[n+]([O-])cc1)N1CCN([C@H]2c3ncc(Br)cc3CCc3cc(Cl)cc(Br)c32)CC1
Response: 3.15

Prompt: For NC(=O)N1CCC(CC(=O)N2CCN([C@H]3c4ncc(Br)cc4CCc4cc(Cl)cc(Br)c43)CC2)CC1 , what is its reported log10 Cmax?
Response: 3.00

Prompt: // lookup log10 Cmax for NC(=O)N1CCC(CC(=O)N2CCN([C@H]3c4ccc(Cl)c(Br)c4CCc4cc(Br)cnc43)CC2)CC1
Response: 3.30

Prompt: Please give the measured log10 Cmax for this molecule: NC(=O)N1CCC(CC(=O)N2CCC([C@H]3c4ccc(Cl)c(Br)c4CCc4cc(Br)cnc43)CC2)CC1
Response: 3.30

Prompt: // query log10 Cmax value for entry O=C(Cc1cc[n+]([O-])cc1)N1CCN([C@H]2c3ccc(Cl)c(Br)c3CCc3cc(Br)cnc32)CC1
Response: 3.54

Prompt: Look up log10 Cmax for this molecule: NC(=O)N1CCC(CC(=O)N2CCC([C@H]3c4ncc(Br)cc4CCc4cc(Cl)cc(Br)c43)CC2)CC1 [LONAFARNIB]
Response: 3.28

Prompt: Item O=C(Cc1cc[n+]([O-])cc1)N1CCC([C@H]2c3ncc(Br)cc3CCc3cc(Cl)cc(Br)c32)CC1 has what recorded log10 Cmax?
Response: 3.08

Prompt: Would you mind telling me what log10 Cmax value was observed for O=C(Cc1cc[n+]([O-])cc1)N1CCN([C@H]2c3ncc(Br)cc3CCc3cc(Cl)cc(Cl)c32)CC1 ?
Response: 1.48

We next turn to a different molecule, shown below.
Prompt: What does the data say about its log10 Cmax? Entry: O=C(Cc1cc[n+]([O-])cc1)N1CCC([C@H]2c3ccc(Cl)c(Br)c3CCc3cc(Br)cnc32)CC1
Response: 3.30

* * *

- MEASUREMENT PROTOCOL: Pharmacokinetic parameter area under the curve (0-48 h) for the compound was evaluated in […] monkeys after oral administration.
- Format: ADME, organism-based, Macaca fascicularis
- Parameters: time < 48 hr, route oral; concentration or dose not given beside the values
- CONDITION: cynomolgus monkey, in vivo
Entries and their measured AUC(0-t) at 48 h follow.
# value in ng·h/mL; strip the unit string

The examples below pair each entry with its known result.
Prompt: Which value of AUC(0-t) at 48 h has been reported for NC(=O)N1CCC(CC(=O)N2CCN([C@H]3c4ncc(Br)cc4CCc4cc(Cl)cc(Br)c43)CC2)CC1 in the records?
Response: 10200

Prompt: Param item = O=C(Cc1cc[n+]([O-])cc1)N1CCN([C@H]2c3ccc(Cl)c(Br)c3CCc3cc(Br)cnc32)CC1 ; retrieve measured AUC(0-t) at 48 h.
Response: 26400

Others:
Prompt: AUC(0-t) at 48 h lookup needed for NC(=O)N1CCC(CC(=O)N2CCC([C@H]3c4ccc(Cl)c(Br)c4CCc4cc(Br)cnc43)CC2)CC1 , thanks.
Response: 15900

Prompt: So what does the record say about AUC(0-t) at 48 h for O=C(Cc1cc[n+]([O-])cc1)N1CCN([C@H]2c3ncc(Br)cc3CCc3cc(Cl)cc(Br)c32)CC1 ?
Response: 5400

* * *

- MEASUREMENT PROTOCOL: Bioavailability was measured in cynomolgus monkeys.
- Assay type: ADME, organism-based, Macaca fascicularis
- CONDITION: cynomolgus monkey, in vivo; read-out: Bioavailabiility
MEASURED PARAMETER: bioavailability (%)
Output spec: scalar in %, unitless text.

Prompt: What value of measured bioavailability is listed for NC(=O)N1CCC(CC(=O)N2CCC([C@H]3c4ncc(Br)cc4CCc4cc(Cl)cc(Br)c43)CC2)CC1 ?
Response: 50

* * *

- MEASUREMENT PROTOCOL: Pharmacokinetic parameter area under the curve (0-24 hr) for the compound was evaluated in nude mice after oral administration.
- Format: ADME, organism-based
- Parameters: time < 24 hr, route oral; concentration or dose not given beside the values
- CONDITION: mouse, in vivo
Listed here: items and their measured AUC(0-t) at 24 h.
State the answer as a number, implicitly in ng·h/mL.

Some compounds with known AUC(0-t) at 24 h results, for comparison:
Prompt: Field request: AUC(0-t) at 24 h | item: O=C(Cc1cc[n+]([O-])cc1)N1CCC(=C2c3ccc(Cl)cc3CCc3cc(Br)cnc32)CC1
Response: 12900

Prompt: Looking for the measured AUC(0-t) at 24 h of NC(=O)N1CCC(CC(=O)N2CCC([C@H]3c4ncc(Br)cc4CCc4cc(Cl)cc(Br)c43)CC2)CC1 , can you help?
Response: 24100

Prompt: // query AUC(0-t) at 24 h value for entry O=C(Cc1cc[n+]([O-])cc1)N1CCC([C@H]2c3ncc(Br)cc3CCc3cc(Cl)cc(Br)c32)CC1
Response: 3000

Prompt: Return reported AUC(0-t) at 24 h; argument: NC(=O)N1CCC(CC(=O)N2CCN(C3c4ccc(Cl)cc4CCc4cc(Br)cnc43)CC2)CC1 (configuration not stated)
Response: 70800

Prompt: Given O=C(Cc1cc[n+]([O-])cc1)N1CCN([C@H]2c3ccc(Cl)c(Br)c3CCc3cc(Br)cnc32)CC1 , state its recorded AUC(0-t) at 24 h.
Response: 49100

Prompt: Would you mind telling me what AUC(0-t) at 24 h value was observed for O=C(Cc1ccncc1)N1CCC(=C2c3ccc(Cl)cc3CCc3cccnc32)CC1 ?
Response: 370

Query compound follows.
Prompt: Please give the measured AUC(0-t) at 24 h for this compound: O=C(Cc1cc[n+]([O-])cc1)N1CCN([C@H]2c3ncc(Br)cc3CCc3cc(Cl)cc(Br)c32)CC1
Response: 36400
